Cited source: BindingDB's records for doi:10.1021/jm0009181

target: Bifunctional dihydrofolate reductase-thymidylate synthase (Plasmodium falciparum); assay: Evaluated for inhibition constant (Ki wt) against Wild-type dihydrofolate reductase of Plasmodium falciparum
Sequence (A7UD81 whole entry): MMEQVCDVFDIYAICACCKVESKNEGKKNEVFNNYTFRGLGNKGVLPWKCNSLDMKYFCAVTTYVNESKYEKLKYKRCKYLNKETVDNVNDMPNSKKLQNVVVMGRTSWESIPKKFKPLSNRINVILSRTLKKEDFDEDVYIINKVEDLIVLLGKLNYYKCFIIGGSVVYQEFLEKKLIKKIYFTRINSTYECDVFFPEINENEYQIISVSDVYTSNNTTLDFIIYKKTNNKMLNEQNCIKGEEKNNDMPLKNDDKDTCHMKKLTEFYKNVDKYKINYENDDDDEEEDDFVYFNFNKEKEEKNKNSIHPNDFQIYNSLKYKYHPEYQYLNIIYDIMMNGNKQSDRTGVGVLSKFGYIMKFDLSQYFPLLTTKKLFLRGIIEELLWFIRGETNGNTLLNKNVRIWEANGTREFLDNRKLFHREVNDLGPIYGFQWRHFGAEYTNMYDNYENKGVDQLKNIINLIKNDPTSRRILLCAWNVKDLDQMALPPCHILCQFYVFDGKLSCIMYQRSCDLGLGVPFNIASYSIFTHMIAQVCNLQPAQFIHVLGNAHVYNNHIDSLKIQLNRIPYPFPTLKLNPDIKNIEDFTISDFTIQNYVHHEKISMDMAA
Measured Ki accompanies every entry in the list below.
Give just the number in nM; leave the unit off.

CC(C)C1N=C(N)N=C(N)N1c1ccc(Br)cc1 (stereo not drawn) ... 30

Query string: Lookup: Ki / Bifunctional dihydrofolate reductase-thymidylate synthase (Plasmodium falciparum) / CCC1N=C(N)N=C(N)N1c1ccc(Cl)cc1 (stereo not drawn)
Result string: 3.6

Query string: Hello, I am looking for reported Ki with Bifunctional dihydrofolate reductase-thymidylate synthase (Plasmodium falciparum) for CCCC1N=C(N)N=C(N)N1c1ccc(C)cc1 (stereo not drawn) . Could you help?
Result string: 13.7

Query string: Query the reported Ki for Bifunctional dihydrofolate reductase-thymidylate synthase (Plasmodium falciparum); item: CC(C)C1N=C(N)N=C(N)N1c1ccc(Cl)cc1 (stereo not drawn)
Result string: 60.5

Query string: Lab note: need Ki for NC1=NCN(c2ccc(Cl)cc2)C(N)=N1 on Bifunctional dihydrofolate reductase-thymidylate synthase (Plasmodium falciparum), anyone have it?
Result string: 24.4

Query string: Give recorded Ki with Bifunctional dihydrofolate reductase-thymidylate synthase (Plasmodium falciparum) for the following compound: CCC1N=C(N)N=C(N)N1c1ccc(Br)cc1 (stereo not drawn)
Result string: 5.7

Query string: Param readout = Ki; param system = Bifunctional dihydrofolate reductase-thymidylate synthase (Plasmodium falciparum); param query = CC1(C)N=C(N)N=C(N)N1c1ccc(Br)cc1 ; response: value
Result string: 1.1
